Entries and their viability at 24 h, 5 µM
# protocol: Cytotoxicity against mouse Neuro2a cells expressing APP Swedish mutant assessed as cell viability at 5 uM after 24 hrs by MTT assay relative to control
# Format: cell-based, N2a
# particulars: read-out: Activity
measurement.name: viability at 24 h, 5 µM (%)

O=C(Nc1cc(Br)ccc1N1CCN(CCO)CC1)c1cc2ccccc2o/c1=N\c1ccccc1 ... 105
N#Cc1cccc(CN2CCN(c3ccc(Br)cc3NC(=O)c3cc4ccccc4o/c3=N\c3ccccc3)CC2)c1 ... 91.2
N=c1oc2ccccc2cc1C(=O)Nc1cc(Br)ccc1N1CCN(Cc2ccccc2)CC1 ... 99.7
O=C(Nc1cc(Br)ccc1N1CCN(CCc2cc3ccccc3[nH]2)CC1)c1cc2ccccc2o/c1=N\c1ccccc1 ... 105
O=C(Nc1cc(Br)ccc1N1CCN(CCCN2C(=O)c3ccccc3C2=O)CC1)c1cc2ccccc2o/c1=N\c1ccccc1 ... 101
O=C(Nc1cc(Br)ccc1N1CCN(CCN2C(=O)c3ccccc3C2=O)CC1)c1cc2ccccc2o/c1=N\c1ccccc1 ... 108

Where these numbers come from: ChEMBL document CHEMBL2346537
